Entry source: ChEMBL document CHEMBL1961873

Reported inhibition values are given for each entry in this list.
MEASURED_TARGET: Serine/threonine-protein kinase Nek6 (Homo sapiens);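 further: values are the mean percent inhibition of NEK6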
CONDITIONS: at 0.1 µM

{"columns": ["MOLECULE", "UNIT_LABEL", "inhibition"],
 "data": [
  ["CS(=O)(=O)CCNCc1ccc(-c2ccc3ncnc(Nc4ccc(OCc5ccccc5)cc4)c3c2)o1", "%", 2.28],
  ["Cc1ccc(-c2cc3c(NC(=O)C4CC4)ncnc3o2)cc1", "%", 3.4],
  ["NS(=O)(=O)c1cccc(N/C=C2\\C(=O)Nc3ccccc32)c1", "%", 1.86],
  ["CS(=O)(=O)CCNCc1ccc(-c2ccc3ncnc(Nc4ccc(OCc5cccc(C(F)(F)F)c5)cc4)c3c2)o1", "%", 0.78],
  ["Cc1cc(O)cc(C)c1/C=C/c1cncc(C(=O)OC(C)(C)C)c1", "%", 1.87],
  ["CN(C)CCNC(=O)Nc1ccc(N(C)c2ccnc(Nc3ccc(CS(C)(=O)=O)cc3)n2)cc1", "%", 3.4],
  ["CS(=O)(=O)Nc1ccc(-c2cc(-c3ccccc3)cc(C(N)=O)c2N)cc1", "%", 1.42],
  ["O=C(O[C@H]1CN[C@H](C#Cc2cc3ncnc(Nc4ccc5c(cnn5Cc5ccccc5)c4)c3s2)C1)N1CCOCC1", "%", -0.55],
  ["O=C(Nc1n[nH]c2nnc(-c3cccnc3)cc12)C1CC1", "%", -0.09]
]}

---

Reported inhibition values are given for each entry in this list.
MEASURED_TARGET: Inhibitor of nuclear factor kappa-B kinase subunit epsilon (Homo sapiens) (UniProt Q14164);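 further: mean inhibition of IKKε reported, from the GSK PKIS dataset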
Sequence (whole entry): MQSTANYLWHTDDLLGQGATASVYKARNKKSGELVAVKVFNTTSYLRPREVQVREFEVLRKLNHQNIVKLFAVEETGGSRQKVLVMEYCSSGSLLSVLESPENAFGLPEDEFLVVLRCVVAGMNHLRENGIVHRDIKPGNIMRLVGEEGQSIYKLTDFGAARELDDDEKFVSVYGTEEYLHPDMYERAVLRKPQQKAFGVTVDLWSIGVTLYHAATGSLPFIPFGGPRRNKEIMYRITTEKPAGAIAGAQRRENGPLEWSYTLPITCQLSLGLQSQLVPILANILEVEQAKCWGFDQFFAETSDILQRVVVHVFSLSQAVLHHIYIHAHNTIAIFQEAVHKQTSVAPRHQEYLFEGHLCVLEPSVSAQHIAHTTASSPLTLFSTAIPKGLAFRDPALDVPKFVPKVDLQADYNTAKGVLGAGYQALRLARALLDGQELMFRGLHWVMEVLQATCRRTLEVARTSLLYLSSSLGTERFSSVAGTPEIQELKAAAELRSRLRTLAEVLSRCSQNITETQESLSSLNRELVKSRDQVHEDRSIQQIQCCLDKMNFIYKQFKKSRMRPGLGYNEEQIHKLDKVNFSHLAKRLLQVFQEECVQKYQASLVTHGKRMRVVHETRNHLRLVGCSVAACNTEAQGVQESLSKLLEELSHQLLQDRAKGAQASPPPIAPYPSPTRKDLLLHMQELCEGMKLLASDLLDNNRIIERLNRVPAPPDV
CONDITIONS: at 0.1 µM

{"columns": ["MOLECULE", "MEASURED_TARGET", "UNIT_LABEL", "inhibition"],
 "data": [
  ["COc1c(C(N)=O)cc(-c2ccc(Cl)cc2)cc1-c1ccc(S(N)(=O)=O)cc1", "Inhibitor of nuclear factor kappa-B kinase subunit epsilon (Homo sapiens) (UniProt Q14164)", "%", 8.74],
  ["NS(=O)(=O)c1ccc(N/N=C2\\C(=O)Nc3ccc(C(=O)NCc4ccncc4)cc32)cc1", "Inhibitor of nuclear factor kappa-B kinase subunit epsilon (Homo sapiens) (UniProt Q14164)", "%", 14.4],
  ["Cc1nnc(-c2cccc(-c3ccc(C(=O)NCC4CC4)cc3)c2)o1", "Inhibitor of nuclear factor kappa-B kinase subunit epsilon (Homo sapiens) (UniProt Q14164)", "%", 7.79],
  ["CNC(=O)c1ncccc1Nc1nc(Nc2cc3c(cc2OC)CCCN3C(=O)CN(C)C)nc2[nH]ccc12", "Inhibitor of nuclear factor kappa-B kinase subunit epsilon (Homo sapiens) (UniProt Q14164)", "%", 5.04],
  ["CCCNc1cccc(-n2ncc3c(N/N=C/c4ccncc4)ncnc32)c1", "Inhibitor of nuclear factor kappa-B kinase subunit epsilon (Homo sapiens) (UniProt Q14164)", "%", 5.27],
  ["Cc1cc(O)cc(C)c1/C=C/c1cncc(C(=O)OC(C)(C)C)c1", "Inhibitor of nuclear factor kappa-B kinase subunit epsilon (Homo sapiens) (UniProt Q14164)", "%", 4.19],
  ["c1ccc(-c2n[nH]cc2-c2ccnc(-c3ccc(OCCn4ccnc4)cc3)c2)nc1", "Inhibitor of nuclear factor kappa-B kinase subunit epsilon (Homo sapiens) (UniProt Q14164)", "%", 0.86],
  ["COC(=O)Nc1nc2cc(Oc3ccc(NC(=O)Nc4ccccc4)cc3)ccc2[nH]1", "Inhibitor of nuclear factor kappa-B kinase subunit epsilon (Homo sapiens) (UniProt Q14164)", "%", 5.85]
]}

---

MEASURED_TARGET: Tyrosine-protein kinase receptor UFO (Homo sapiens)
CONDITIONS: at 1 µM
Description: GSK_PKIS: AXL mean inhibition at 1 uM [Nanosyn]
Reported inhibition values are given for each entry in this list.

{"columns": ["MOLECULE", "MEASURED_TARGET", "inhibition [%]"],
 "data": [
  ["O=C(O[C@H]1CN[C@H](C#Cc2cc3ncnc(Nc4ccc(OCc5cccc(F)c5)c(Cl)c4)c3s2)C1)N1CCOCC1", "Tyrosine-protein kinase receptor UFO (Homo sapiens)", -9.27],
  ["COc1cc(N2CCN(C(C)C)CC2)ccc1Nc1nc(Nc2cccc(F)c2C(=O)O)c2cc[nH]c2n1", "Tyrosine-protein kinase receptor UFO (Homo sapiens)", 37.3],
  ["CS(=O)(=O)CCNCc1ccc(-c2ccc3ncnc(Nc4ccc(OCc5ccccc5)cc4)c3c2)o1", "Tyrosine-protein kinase receptor UFO (Homo sapiens)", -1.88],
  ["O=C1Nc2ccccc2/C1=C1\\CCc2cc(O)ccc21", "Tyrosine-protein kinase receptor UFO (Homo sapiens)", 1.9],
  ["CS(=O)(=O)Nc1ccc(-c2ccc3c(NC(=O)C4CC4)n[nH]c3c2)cc1", "Tyrosine-protein kinase receptor UFO (Homo sapiens)", 0.24],
  ["NS(=O)(=O)c1ccc(N/N=C2\\C(=O)Nc3cccc(CCc4ccncc4)c32)cc1", "Tyrosine-protein kinase receptor UFO (Homo sapiens)", 0.32],
  ["CCOc1ccc2c(-c3ccnc(Nc4cc(OC)cc(C(F)(F)F)c4)n3)cnn2n1", "Tyrosine-protein kinase receptor UFO (Homo sapiens)", -1.43],
  ["NS(=O)(=O)c1ccc(N/N=C2\\C(=O)Nc3ccc(C(=O)NCc4ccncc4)cc32)cc1", "Tyrosine-protein kinase receptor UFO (Homo sapiens)", -5.22],
  ["COc1ccc(Nc2ncc(-c3ccccc3)o2)cc1OC", "Tyrosine-protein kinase receptor UFO (Homo sapiens)", 3.31],
  ["CC1(C)CC(n2cnc(-c3ccc(F)cc3)c2-c2ccnc(N)n2)CC(C)(C)N1", "Tyrosine-protein kinase receptor UFO (Homo sapiens)", 1.58],
  ["N#Cc1cccc(Nc2ncc(-c3ccccc3)o2)c1", "Tyrosine-protein kinase receptor UFO (Homo sapiens)", -1.77],
  ["Cc1c2ccc(N(C)c3ccnc(Nc4cccc(S(N)(=O)=O)c4)n3)cc2nn1C", "Tyrosine-protein kinase receptor UFO (Homo sapiens)", 1.26],
  ["NS(=O)(=O)c1cccc(N/C=C2\\C(=O)Nc3ccccc32)c1", "Tyrosine-protein kinase receptor UFO (Homo sapiens)", -2.91]
]}

---

MEASURED_TARGET: Aurora kinase C (Homo sapiens);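 further: values are the mean inhibition of Aurora-C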
CONDITIONS: at 0.1 µM
Reported inhibition values are given for each entry in this list.

{"columns": ["COMPOUND", "inhibition / %"],
 "data": [
  ["N#Cc1cccc(Nc2ncc(-c3ccccc3)o2)c1", 1.44],
  ["Cc1ccc(-c2cc3c(NC(=O)C4CC4)ncnc3o2)cc1", 2.4],
  ["CCS(=O)(=O)c1ccc(OC)c(Nc2ncc(-c3cccc(F)c3)o2)c1", 0.03],
  ["COc1cc(N2CCN(C(C)C)CC2)ccc1Nc1nc(Nc2cccc3ncccc23)c2cc[nH]c2n1", 0.27],
  ["CCS(=O)(=O)c1ccc(OC)c(Nc2ncc(-c3cccc(C(C)=O)c3)o2)c1", 4.6],
  ["CNC(=O)c1sc(-n2cnc3cc(OC)c(OC)cc32)cc1OCc1ccccc1C(F)(F)F", 5.07],
  ["COc1cc(Nc2ncc(-c3ccccc3)o2)cc(OC)c1", 3.27],
  ["Cc1c2ccc(N(C)c3ccnc(Nc4cccc(S(N)(=O)=O)c4)n3)cc2nn1C", 15.8],
  ["OCCCNc1nccc(-c2c(-c3ccc(F)cc3)nn3cc(C(F)(F)F)ccc23)n1", 0.36],
  ["NS(=O)(=O)c1ccc(N/N=C2\\C(=O)Nc3cccc(CCc4ccncc4)c32)cc1", 5],
  ["CC1(C)CC(n2cnc(-c3ccc(F)cc3)c2-c2ccnc(N)n2)CC(C)(C)N1", -0.39],
  ["NS(=O)(=O)c1cccc(N/C=C2\\C(=O)Nc3ccccc32)c1", 7.7],
  ["CN(c1ccc(NC(=O)NCCN2CCOCC2)cc1)c1ccnc(Nc2ccc(CS(C)(=O)=O)cc2)n1", 43.8],
  ["CN(C)CCNC(=O)Nc1ccc(N(C)c2ccnc(Nc3ccc(CS(C)(=O)=O)cc3)n2)cc1", 21.9],
  ["CS(=O)(=O)CCNCc1ccc(-c2ccc3ncnc(Nc4ccc(OCc5cccc(C(F)(F)F)c5)cc4)c3c2)o1", 1.93],
  ["O=C(O[C@H]1CN[C@H](C#Cc2cc3ncnc(Nc4ccc(OCc5cccc(F)c5)c(Cl)c4)c3s2)C1)N1CCOCC1", 1.9],
  ["COc1ccc2ncn(-c3cc(O[C@H](C)c4ccccc4C(F)(F)F)c(C(N)=O)s3)c2c1", -1.97],
  ["NS(=O)(=O)c1ccc(N/N=C2\\C(=O)Nc3ccc(C(=O)NCc4ccncc4)cc32)cc1", 1.92],
  ["CC1=C(C(=O)Nc2ccc3[nH]ncc3c2)C(c2ccc(F)cc2)N=C(c2ccc(C(F)(F)F)nc2)N1 (centres undefined)", 3.47]
]}
